assay: soluble on expression in E. coli; label from the status in PepcDB or PDB records
Value kind: soluble on expression in E. coli

Here is how some sequences turned out for soluble on expression in E. coli.
| Chain | soluble on expression in E. coli |
| --- | --- |
| SAKNAYTKLGTDDNAQLLDIRATADFRQVGSPNIKGLGKKAVSTVYNGEDKPGFLKKLSLKFKDPENTTLYILDKFDGNSELVAELVALNGFKSAYAIKDGAEGPRGWLNSSLPWIEPKKT | soluble |
| MNIKYSGIENRFETAILKKNGVRSGFVSFAPNLAAVKLNDYAKVRKRITKTKQKADIVIVMFHGGAEGKQAEHLPFDTEIFYGENRGNVVEFARLAVDSGADVVFGQGPHVTRAVELYRDRFISYSGGNFATYGAINTSGISGIAPIFKIITDKQGRFVSGNIIPITQVGDKIPKIDPEKTVIGRIIYLNRSDFPKGNGLDVSPDGSITRR | not soluble |
| MDMNFFKHDAFSATTMMKAIENYEFQPGLISSLNLFEEVETSTTVVGIERRDNTLSLIQTSERGAPLVEGDRDGRNLRFFKTTRIAKSDTVKSEEIQNRREFGTEDQLETAMKYIARKQKKLISEIELTWENMQLGAVQGVVLDADGSVIVDWYKEWEIAPPKPIDFKLNNETTNVADHVDQVIMKMIEASKGAFSDRSRIIGLCGNEFFSKLKNHKTIRETYLNTALAQTLNSAGGVATPSAIGSGSFGSFDFAGVTFINYRSIHNYNVSAKAGTKRAIGIKPDECQFLPANAPGVFQKTFAPGESLDFANTVGKPLYTMLIVDNDRNAWVKPEVYSYPLYICTRPEMLFKAVSGGK | not soluble |
| MSLNGITKYVEKVKGLLFSSVQSQKRIEFSNNDEKVMLSNVPLIQQLPELDRGCEVTSLAMMLQYAGVSVDKMKLANEIKKVNFMEDGVRGNPNEGFVGNIYTFSESGYGVYHGPLFQLAKKYLPNKAVDLTGKSIEEIYKSVKAGHPVVMITNATYAPLDEDEFTTWETNSGDVSITYNEHCVVLVGYDKESVYIRDPLDDSLDVKVPREKFEQAWVQMGSQAISYVNKSKEGHHHHHH | soluble |
| MSLEVTTPGKLFIAGEYAVVEPGHPAIIVAVDQFVTVTVEETTDEGSIQSAQYSSLPIRWTRRNGELVLDIRENPFHYVLAAIHLTEKYAQEQNKELSFYHLKVTSELDSSNGRKYGLGSSGAVTVGTVKALNIFYDLGLENEEIFKLSALAHLAVQGNGSCGDIAASCYGGWIAFSTFDHDWVNQKVATETLTDLLAMDWPELMIFPLKVPKQLRLLIGWTGSPASTSDLVDRVHQSKEEKQAAYEQFLMKSRLCVETMINGFNTGKISVIQKQITKNRQLLAELSSLTGVVIETEALKNLCDLAESYTGAAKSSGAGGGDCGIVIFRQKSGILPLMTAWEKDGITPLPLHVYTYGQKECKEKHEGHHHHHH | soluble |

Query (sequence): "MEIKMAKDYGFCFGVKRAIQIAEKNQNSLIFGSLIHNAKEINRLEKNFNVKIEEDPKKIPKNKSVIIRTHGIPKQDLEYLKNKGVKITDATCPYVIKPQQIVESMSKEGYQIVLFGDINHPEVKGVISYATNQALVVNSLEELQEKKLQRKVALVSQTTKQTPKLLQIASYLVERCTEVRIFNTICNATSYNQKAALDLSKEVDIMIVVGGKTSSNTKQLLSIAKQHCKDSYLVEDENELELAWFKDKKLCGITAGASTPDWIIENVKQKISTILEHHHHHH" ; field requested: soluble on expression in E. coli
not soluble
